# Test system: Rattus norvegicus
# method-notes: Tested for antihypertensive activity expressed as max fall in BP in spontaneously hypertensive rats (SHR), at the dose of 3.0 mg/kg
# Assay type: functional
Catalogue of Max fall in blood pressure values
// return just the number, without any unit appended

Below are worked cases with known answers.
Request: API: value(readout= Max fall in blood pressure, system= Rattus norvegicus, query= CC1(C)Oc2ccc(C#N)cc2[C@@H](Nc2n[s+]([O-])nc2N)[C@@H]1O (stereo not given in full) )
Result: 20

Request: API: value(readout= Max fall in blood pressure, system= Rattus norvegicus, query= CC1(C)Oc2ccc(C#N)cc2[C@@H](Nc2n[nH]c(N)n2)[C@@H]1O )
Result: 19

Request: API: value(readout= Max fall in blood pressure, system= Rattus norvegicus, query= CC1(C)Oc2ccc(C#N)cc2[C@@H](Nc2nc(N)no2)[C@@H]1O )
Result: 32

---
Request: API: value(readout= Max fall in blood pressure, system= Rattus norvegicus, query= Cc1nc(N[C@@H]2c3cc(C#N)ccc3OC(C)(C)[C@H]2O)n(C)n1 )
Result: 37

Request: API: value(readout= Max fall in blood pressure, system= Rattus norvegicus, query= Cc1noc(N[C@@H]2c3cc(C#N)ccc3OC(C)(C)[C@H]2O)n1 )
Result: 31
